assay: Solubility in gastric juice or intestinal juice model fluid (precipitation method using DMSO); type: physicochemical; conditions: pH 1.2, simulated gastric fluid, kinetic from dmso stock, 1st fluid for Disintegration Test of Japanese Pharmacopoeia (pH: 1.2), room temperature, read-out: Solubility (μg/mL) 1st fluid
Label 1 when solubility at 24 h is at or above 60 µg/mL; otherwise label 0.

COc1cc(OCn2cccn2)ccc1-c1[nH]c(C2CCC(F)(F)CC2)nc1Cl [Example 196]; 1
COc1cc(OCc2ccnc(C(F)(F)F)c2)ccc1-c1cnc(-c2ccc(Cl)nc2)[nH]1 [Example 107]; 0
COc1cc(-c2[nH]c(C3CCC(F)(F)CC3)nc2Cl)ccc1OCc1ccc(C(F)(F)F)nc1 [Example 203]; 1
COc1cc(OCc2ccc(C(F)(F)F)cn2)ccc1-c1c[nH]c(C2CCCCCC2)n1 [Example 75]; 1
COc1cc(OCc2ccc(C(F)(F)F)nc2)ccc1-c1[nH]c(C2CCC(F)(F)CC2)nc1C [Example 6]; 1
COc1cc(OCc2ncc(C(F)(F)F)cc2F)ccc1-c1[nH]c(C2CCCC2)nc1Cl [Example 367]; 1
COc1cc(OCc2ccc(C(F)(F)F)nc2)ccc1-c1nc(-c2ccc(Cl)nc2)n(CC2CC2)c1C [Example 154]; 1
COc1cc(OCc2ccc(C(F)(F)F)nc2)ccc1-c1nc(-c2ccc(Cl)cn2)[nH]c1Cl [Example 228]; 0
